Test system: U-251
assay-remarks: NCI tumour cell line growth inhibition, 48 h
The source made the active and inactive calls. Rule as the data show it: active = GI50 up to about 1.1 µM and inactive = higher.
Reply using exactly one outcome from active, inactive

For Cc1ccc(C2(C)NC(=S)N(NC(N)=S)C2=S)cc1 (stereo not given) , which call appears in the assay record?
inactive

For CC(C1=CC=C2[C@@H]3CCC4CC(N(C)C)CC[C@]4(C)C3CC[C@]12C)N(C)C=O (stereo not given in full) , which call appears in the assay record?
inactive

For Cn1c2ccccc2c2c(-c3ccccc3)cc3c(c21)C(=O)C=CC3=O , which call appears in the assay record?
inactive

For COc1ccc(C2CC(c3c(O)ccc4ccccc34)=NN2C(C)=O)cc1OC (stereo not given) , which call appears in the assay record?
inactive

For COC(=O)/C(C#N)=C(/NCc1ccccc1)Nc1ccccc1 , which call appears in the assay record?
inactive

For C=C(CCCCC)CN1CCCC1C(C)=O (stereo not given) , which call appears in the assay record?
inactive

For CO/N=C1\CC(C)N2C(=O)C(C(C)C)NC(=O)C(NC(=O)c3c4nc5c(C(=O)NC6C(=O)NC(C(C)C)C(=O)N7C(C)CC(O)C7C(=O)N(C)CC(=O)N(C)C(C(C)C)C(=O)OC6C)ccc(C)c5oc-4c(C)c(=O)c3N)C(CO)OC(=O)C(C)N(C)C(=O)CN(C)C(=O)C12 (stereo not given) , which call appears in the assay record?
active

For COC(O)C(=O)c1ccc2c(c1)CC1(C2)Cc2cc3c(cc2C1=O)CCC3 (stereo not given) , which call appears in the assay record?
inactive

For NC12CC3CC(C1)CC(C(=O)O)(C3)C2 , which call appears in the assay record?
inactive

For CCCCC(C)C1CCC2(C)C=CC(=O)C(C)=C2C1O (stereo not given) , which call appears in the assay record?
inactive

---

System: TK-10
assay-remarks: NCI tumour cell line growth inhibition, 48 h
Calls of active or inactive are those of the source. Cut-off read from the data, not from the text of the source: active = GI50 up to about 1.1 µM and inactive = higher.
Kindly state GI50 for each of the entries shown.

Lab note: need GI50 with TK-10 for entry CCN1CCC(O)(/C=C/c2ccc(Cl)c(Cl)c2)C(C(=O)/C=C/c2ccc(Cl)c(Cl)c2)C1 (stereo unspecified) , please look it up.
1.32 µM (inactive)

Lab note: need GI50 with TK-10 for entry CCN(CC)C1=Nc2ccccc2-n2ccnc2C1 , please look it up.
> 100 µM (inactive)

Lab note: need GI50 with TK-10 for entry N#C/N=C(/N)NCN/C(N)=N\C#N , please look it up.
> 100 µM (inactive)

Lab note: need GI50 with TK-10 for entry CN(C)CCCNc1ccc2nnn3c4ccc(O)cc4c(=O)c1c23 , please look it up.
4.67 µM (inactive)

Lab note: need GI50 with TK-10 for entry CCOC(=O)c1c(C)noc1/N=N/N(CCO)CCO , please look it up.
56.1 µM (inactive)

Lab note: need GI50 with TK-10 for entry CCOC(CNc1nn2c(C)nnc2s1)OCC , please look it up.
> 100 µM (inactive)

---

System: OVCAR-4
assay-remarks: NCI tumour cell line growth inhibition, 48 h
Calls of active or inactive are those of the source. Cut-off read from the data, not from the text of the source: active = GI50 up to about 1.1 µM and inactive = higher.
Reply using exactly one outcome from active, inactive

For N#CC(NCc1cccc(CNC(C#N)c2ccccc2)c1)c1ccccc1 (configuration not stated) , which call appears in the assay record?
inactive

For CC(C1=CC=C2[C@@H]3CCC4CC(N(C)C)CC[C@]4(C)C3CC[C@]12C)N(C)C=O (some centres not stated) , which call appears in the assay record?
inactive

For Cc1ccc(NC(=O)CCC(=O)C2Cc3ccccc3C2=O)cc1C (configuration not stated) , which call appears in the assay record?
inactive

For COC1=CC(=O)c2ccccc2C1(C)C1=NC(C)(C)CO1 (configuration not stated) , which call appears in the assay record?
inactive

For Nc1nc2cc(CNc3ccc(C(=O)O)cc3)ccc2nc1-c1ccccc1 , which call appears in the assay record?
inactive

For O=C(c1nc2ccccc2nc1O)C(O)c1ccco1 (configuration not stated) , which call appears in the assay record?
inactive

For CCCCCCCCCCC(C)CCCCCCC(=O)O (configuration not stated) , which call appears in the assay record?
inactive

For CC(=O)C1C(=O)C(=O)N(c2ccccc2C(C)C)C1=O (configuration not stated) , which call appears in the assay record?
inactive

For CSC(SC)(C(=O)O)c1cc(-c2c(Cl)cccc2Cl)no1 , which call appears in the assay record?
inactive

For Cc1c(NC(=O)CSC(=S)N(C)C)c(=O)n(-c2ccccc2)n1C , which call appears in the assay record?
inactive

For CCCCN1/C(=N/Nc2n[nH]c(=O)c3ccccc23)SCC1c1ccc(Cl)cc1 (configuration not stated) , which call appears in the assay record?
inactive

For CCOC(=O)C(=CNc1ccc(S(N)(=O)=O)cc1)C(=O)OCC , which call appears in the assay record?
inactive

For Cc1cc(C)n(C2=NS(=O)(=O)c3ccccc3N2C)n1 , which call appears in the assay record?
inactive

For Oc1ccc2ccccc2c1/C=N/Cc1c(O)ccc2ccccc12 , which call appears in the assay record?
inactive

For NCCN(CCN)/[N+]([O-])=N/O , which call appears in the assay record?
inactive

For O=C(Nc1cccc(C(F)(F)F)c1)C(=O)C(C(=O)c1ccc(Cl)c(Cl)c1)C1OC(=O)c2ccccc21 (configuration not stated) , which call appears in the assay record?
inactive

For CON(C)C(=O)CNC(=O)OCC1c2ccccc2-c2ccccc21 , which call appears in the assay record?
inactive

For C/C(=N\N=C1/C(=O)OC(c2ccccc2)=C1C(=O)c1ccccc1)c1ccc([N+](=O)[O-])cc1 , which call appears in the assay record?
inactive

For Cc1sc2nc(N(C)C)oc(=O)c2c1C , which call appears in the assay record?
inactive

For NS(=O)(=O)c1nnc(NS(=O)(=O)C(F)(F)F)s1 , which call appears in the assay record?
inactive

For CC1CN=C(N(C(=O)Nc2ccccc2)c2ccc(Cl)c(Cl)c2)S1 (configuration not stated) , which call appears in the assay record?
inactive

For CC1(C)Oc2ccccc2[N+]([O-])=C1c1ccccc1 , which call appears in the assay record?
inactive

For CC1CNC(NS(=O)(=O)c2cc(C(=O)Nc3ccc(F)cc3)c(Cl)cc2S)=NN1 (configuration not stated) , which call appears in the assay record?
inactive

For Nc1nc(N)c2c(Cl)c(CNc3ccc(Cl)c(Cl)c3)ccc2n1 , which call appears in the assay record?
active

For COc1cc([C@@H]2c3cc4c(cc3[C@@H](OC(=O)c3ccc(N)cc3)C3COC(=O)[C@@H]32)OCO4)cc(OC)c1O (some centres not stated) , which call appears in the assay record?
inactive

For O=C(/C=C/c1cccs1)c1ccc([N+](=O)[O-])cc1 , which call appears in the assay record?
inactive

For Cc1nc(-n2nc(-c3ccccc3)cc2-c2ccccc2)sc1C(=O)/C=C/c1ccc(/C=C/C(=O)c2sc(-n3nc(-c4ccccc4)cc3-c3ccccc3)nc2C)cc1 , which call appears in the assay record?
inactive

For O=S(=O)(C/C(=N\O)c1ccccc1)c1ccccc1 , which call appears in the assay record?
inactive

For CCOC(=O)[C@H]1Nc2c(cccc2[N+](=O)[O-])C2c3ccccc3CC21 (some centres not stated) , which call appears in the assay record?
inactive

For COC(=O)c1c(-c2ccccc2)c2sc3ccccc3n2c1N , which call appears in the assay record?
inactive

For CCC(=O)NCCc1c[nH]c2ccc(OC)cc12 , which call appears in the assay record?
inactive

For Cc1cc(C(C)C)cc(=O)c(O)c1 , which call appears in the assay record?
inactive

For CCN(CC)C1=Nc2ccccc2-n2ccnc2C1 , which call appears in the assay record?
inactive

For CC(=O)OCCn1c(Cc2ccc([N+](=O)[O-])cc2)nn(C(C)=O)c1=O , which call appears in the assay record?
inactive

For COC(=O)[C@@H]1Cc2c([nH]c3ccccc23)[C@H](c2ccccc2)N1 , which call appears in the assay record?
inactive

For O=C1c2cccnc2C(=O)C2C3C=CC(C3)C12 (configuration not stated) , which call appears in the assay record?
inactive

For Cc1cc(C)nc(SCCc2cccc[n+]2C)n1 , which call appears in the assay record?
inactive

---

System: SF-295
assay-remarks: NCI tumour cell line growth inhibition, 48 h
Active and inactive are the calls of the source. No stated cut-off is given here; in the data, active = GI50 up to about 1.1 µM and inactive = higher.
Reply using exactly one outcome from active, inactive

For O=c1[nH]c2c3ccccc3ccc2c2cc3c(cc12)OCO3 , which call appears in the assay record?
inactive

For C#CCN(CC#C)C(=O)C(=O)c1c[nH]c2ccc(OC)cc12 , which call appears in the assay record?
inactive

For COc1ccc(Oc2cccc(/C=C3/C(=O)Nc4ccccc43)c2)cc1 , which call appears in the assay record?
inactive

For O=[N+]([O-])c1ccc(C(O)/C(=N/O)c2nc3ccc(Cl)cc3nc2O)cc1 (centres undefined) , which call appears in the assay record?
inactive

For CCOC(=O)/C(=N/Nc1ccc(Cl)cc1)N1C(=S)N(C)N=C(C)C=C1S , which call appears in the assay record?
inactive

For c1ccc(C[n+]2ccc3c(c2)CCCC3)cc1 , which call appears in the assay record?
inactive

For C=C1C(=O)OC2CC(C)C(C(O)CC(C)O)=CCC12 (centres undefined) , which call appears in the assay record?
inactive

For COC(=O)C(=Cc1cc(OC)c(OC)c(OC)c1-c1cc2c(cc1C1(C)OCCS1)OCO2)C(=O)OC (centres undefined) , which call appears in the assay record?
inactive

For COC(=O)/C(C#N)=C1\CCC(OC)N1 (centres undefined) , which call appears in the assay record?
inactive

For CC(=O)C1C(=O)C(=O)N(c2ccccc2C(C)C)C1=O (centres undefined) , which call appears in the assay record?
inactive

For C[C@@H]1O[C@@H](O[C@H]2CC[C@]3(C=O)[C@H]4CC[C@]5(C)[C@@H](c6ccc(=O)oc6)CC[C@]5(O)[C@@H]4CC[C@]3(O)C2)[C@H](O)[C@H](O)[C@H]1O[C@@H]1O[C@H](CO)[C@@H](O)[C@H](O)[C@H]1O [HELLEBRIN] , which call appears in the assay record?
active

For CC1CNC(NS(=O)(=O)c2cc(C(=O)Nc3ccc(F)cc3)c(Cl)cc2S)=NN1 (centres undefined) , which call appears in the assay record?
inactive

For COc1ccc2nc(NC(=O)C(=O)C(C#N)c3ccc(Cl)c(Cl)c3)sc2c1 (centres undefined) , which call appears in the assay record?
inactive

For CCOC(=O)[C@H]1Nc2c(cccc2[N+](=O)[O-])C2c3ccccc3CC21 (some centres undefined) , which call appears in the assay record?
inactive

For CC(=O)N(C(C)=O)c1ncc(-n2nc(-c3ccccc3)cc2-c2ccccc2)c(-c2ccccc2)n1 , which call appears in the assay record?
inactive

For O=C(CC(c1ccccc1)C(C(=O)c1ccncc1)C(CC(=O)c1ccncc1)c1ccccc1)c1ccncc1 (centres undefined) , which call appears in the assay record?
inactive

For COc1ccc(-c2[nH]c3c4c(nc5c(c24)C(=O)CC(C)(C)C5)CC(C)(C)C3)cc1 , which call appears in the assay record?
inactive

For O=C1OC(=O)c2c1c(-c1ccccc1)nc1ccccc21 , which call appears in the assay record?
inactive

For COC(=O)/C=C\[C@@H]1[C@H](C)N1S(=O)(=O)c1ccc(C)cc1 (some centres undefined) , which call appears in the assay record?
inactive

Every entry's value here was drawn from ChEMBL document CHEMBL1201862.
